Cited source: PubChem BioAssay (NCI)

Give measured growth for each item. Keep answers brief.
test system: HT29 colon; experiment: NCI-60 one-dose screen, 48 h (100 = growth as untreated, 0 = no growth, -100 = all killed); details: 10 µM unless noted
About 83,000 compounds went through this panel and 20% of them were active in at least one assay; those are over-represented in the sample as a whole.
One number for each entry, in %.

Some entries whose results are on file:
[[record]]
compound = "C#CCCCCCCC[C@@H]1OC(=O)[C@H]([C@@H](C)CC)NC(=O)[C@H]([C@@H](C)CC)NC(=O)CC(=O)[C@@H]1C"
measure_name = "growth"
endpoint_value = 115

[[record]]
compound = "COc1cc(/C(=C2/O[C@@H]([C@H]3COC(C)(C)O3)[C@H]3OC(C)(C)O[C@@H]23)c2ccc3c(c2)OCO3)cc(OC)c1OC"
measure_name = "growth"
endpoint_value = 68.4

[[record]]
compound = "C[n+]1c2ccccc2c(Nc2ccc(NS(=O)(=O)CCCCN=C(N)N)cc2)c2ccc(N)cc21"
measure_name = "growth"
endpoint_value = 34


Would you mind giving growth for every compound in the list below?
1. COc1cc(-c2nc(/C=C3/C(=O)Nc4ccccc43)c3ccccn23)cc(OC)c1OC
2. CN1CCN(Cc2ccc(NC(=O)c3ccc(C#Cc4c(N)ncc5ccc(F)cc45)cc3)cc2C(F)(F)F)CC1
3. COc1ccc(Cn2cc3c(c2-c2ccccc2)CCc2cnoc2-3)cc1N
4. C[C@]12CC[C@H]3[C@@H](CC[C@H]4C[C@@H](O)CC[C@@]43C)[C@@H]1CC(=O)C2
5. c1ccc(-c2cn3ccnc3c(-c3ccc4ncn(C5CCCCC5)c4c3)n2)cc1

62.5
-73.2
10.5
96.9
51.7

Would you mind giving growth for every compound in the list below?
1. COc1ccc(NC(=O)/C=C(C)/C=C/C=C(C)/C=C/C2=C(C)CCCC2(C)C)cc1
2. COc1ccc(Cn2cc3c(c2-c2ccccc2)CCc2cnoc2-3)cc1OC
3. CC([C@H]1CC=C2C3CCC4=C[C@@H](N(C)C)CC[C@]4(C)C3CC[C@@]21C)N(C)C (stereo partly specified)
4. COc1cc2c(cc1OC)C(Cc1cc(OC)c(OC)cc1[N+](=O)[O-])=NCC2
5. CCCCCCCCCCCC(=O)OC(C)C(=O)Nc1ccccc1 (stereo unspecified)
6. O=C(N/N=C/c1ccccc1Cl)c1cccc2ccccc12
7. Nc1ccc(N=Nc2ccccc2)c2cc(S(=O)(=O)O)ccc12

72.4
16.5
-18.3
50.9
99.7
105
94.6
